- study-target: T1, SH2 domain of Phospholipase Cγ1 (recombinant, on protein microarray) (human)
- T1 chain: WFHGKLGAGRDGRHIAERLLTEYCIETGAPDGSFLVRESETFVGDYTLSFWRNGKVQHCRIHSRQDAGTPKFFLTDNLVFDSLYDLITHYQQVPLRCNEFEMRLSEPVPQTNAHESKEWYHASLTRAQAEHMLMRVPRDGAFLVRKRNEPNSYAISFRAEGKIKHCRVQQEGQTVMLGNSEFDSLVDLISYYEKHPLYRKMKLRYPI
- procedure-details: peptide or protein array; recombinant human SH2 and PTB domains spotted on protein microarrays; probed in duplicate with eight concentrations of fluorescently labeled peptide, 10 nM to 5 µM; fluorescence fit to a saturation binding equation
- measurement-context: both partners purified
pKd: −log10 of the molar value. Where no end group is shown, it is not given here. [ ]: non-standard residue; d: D form. pY = N[C@@H](Cc1ccc(OP(=O)(O)O)cc1)C(=O)O
parameter-measured: pKd

Quick one: give measured pKd for KYVDSEGHL[pY]TVPIREQG (peptide, UniProt Q03135 5-22, looked up, also: fluorescent label (position not given here), caveolin-1 (Cav1), human, residues 5-22; also called Tyr14-Cav1 phosphopeptide (18 amino acids); source: synthetic peptide, purified to >95% by preparative reverse phase HPLC) [fluorescently labeled Tyr14-Cav1 phosphopeptide (residues 5-22 of Cav1, phosphorylated on Tyr14)]
> 5.70
